Every entry's value here was drawn from PubChem BioAssay AID1555.

System: human liver microsomes, LC/MS/MS parent remaining, 60 min
Assay: metabolic stability in human liver microsomes, late-stage follow-up, ADME assay, biochemical (AID 1555)
Conditions: at 1 µM; hits give low values

smiles	endpoint-unit	percent remaining
C=CCn1c(SCC(=O)c2ccc(O)c(O)c2)nnc1-c1ccccc1OC	%	47
